- Tested on: A549
- assay: Cytotoxicity against human A549 cells assessed as reduction in cell proliferation after 48 hrs by MTT assay
- Type: functional, cell-based
- particulars: Homo sapiens, A549, 48 h
Provide the recorded IC50 for the entries that follow.
Hi! Could you send only the number? It should be in µM, unit omitted.

Dear colleague, please send me the reported IC50 for COC(=O)[C@@]12Oc3c(-c4ccc(O)c5c4O[C@]4(C(=O)OC)C(=C(O)C[C@H](C)[C@H]4O)C5=O)ccc(O)c3C(=O)C1=C(O)C[C@H](C)[C@H]2O when you can. 11.7

Quote IC50 reported for COC(=O)[C@@]12Oc3ccc(-c4ccc(O)c5c4O[C@]4(C(=O)OC)C(=C(O)C[C@H](C)[C@H]4O)C5=O)c(O)c3C(=O)C1=C(O)C[C@H](C)[C@H]2O please. 1.6

Give recorded IC50. COC(=O)[C@@]12Oc3cc(C)c(-c4ccc5c(c4O)C(=O)C4=C(O)C[C@H](C)[C@@H](O)[C@]4(C(=O)OC)O5)c(O)c3C(=O)C1=C(O)CC[C@H]2O (stereo in doubt; 1) 17.8

----------
- assay: Cytotoxicity against human HO8910 cells assessed as reduction in cell proliferation after 48 hrs by MTT assay
- Format: functional, cell-based
measured_attribute: IC50 (µM)
Give your result in µM as a bare value.

Give me measured IC50, please, for this compound: COC(=O)[C@@]12Oc3cc(C)c(-c4ccc5c(c4O)C(=O)C4=C(O)C[C@H](C)[C@@H](O)[C@]4(C(=O)OC)O5)c(O)c3C(=O)C1=C(O)CC[C@H]2O (stereo in doubt; 2) 6.9

----------
- Tested on: K562
- assay: Cytotoxicity against human K562 cells assessed as reduction in cell proliferation after 48 hrs by MTT assay
- Type: functional, cell-based
- particulars: Homo sapiens, K562, 48 h
measured_attribute: pIC50
Scale for pIC50: -log10 of concentration given in mol/L; no unit attached.

// fetch pIC50 given entry COC(=O)[C@@]12Oc3ccc(-c4ccc(O)c5c4O[C@]4(C(=O)OC)C(=C(O)C[C@H](C)[C@H]4O)C5=O)c(O)c3C(=O)C1=C(O)C[C@H](C)[C@H]2O 5.96

Using the record for COC(=O)[C@@]12Oc3cc(C)c(-c4ccc5c(c4O)C(=O)C4=C(O)C[C@H](C)[C@@H](O)[C@]4(C(=O)OC)O5)c(O)c3C(=O)C1=C(O)CC[C@H]2O (stereo in doubt; 1) , state its measured pIC50. 4.68

Check the records and state pIC50 for COC(=O)[C@@]12Oc3c(-c4ccc(O)c5c4O[C@]4(C(=O)OC)C(=C(O)C[C@H](C)[C@H]4O)C5=O)ccc(O)c3C(=O)C1=C(O)C[C@H](C)[C@H]2O 6.40

----------
Assign IC50 to each entry below.
- Tested on: A549
- assay: Cytotoxicity against human A549 cells assessed as reduction in cell proliferation after 48 hrs by MTT assay
- Assay type: functional, cell-based
- particulars: Homo sapiens, A549, 48 h

For COC(=O)c1c(O)c(C)cc(O)c1C(=O)c1c(O)ccc(-c2ccc3c(c2O)C(=O)C2=C(O)C[C@H](C)[C@@H](O)[C@]2(C(=O)OC)O3)c1O , write its IC50. > 50 µM

Retrieve IC50 measured for COC(=O)[C@@]12Oc3ccc(-c4ccc(O)c5c4O[C@]4(C(=O)OC)C(=C(O)C[C@H](C)[C@H]4O)C5=O)c(O)c3C(=O)C1=C(O)C[C@H](CO)[C@H]2O and print it. > 50 µM

In one line, give reported IC50 of the entry COC(=O)[C@@]12Oc3c(-c4ccc5c(c4O)C(=O)C4=C(O)C[C@H](C)[C@@H](O)[C@]4(C(=O)OC)O5)ccc(O)c3C(=O)C1=C(O)C[C@H](CO)[C@H]2O . > 50 µM

----------
- Test system: K562
- assay: Cytotoxicity against human K562 cells assessed as reduction in cell proliferation after 48 hrs by MTT assay
- Assay type: functional, cell-based
- particulars: Homo sapiens, K562, 48 h
measured_attribute: IC50

Dear colleague, please send me the reported IC50 for COC(=O)[C@@]12Oc3ccc(-c4ccc(O)c5c4O[C@]4(C(=O)OC)C(=C(O)C[C@H](C)[C@H]4O)C5=O)c(O)c3C(=O)C1=C(O)C[C@H](CO)[C@H]2O when you can. > 50 µM

Report IC50 for COC(=O)[C@@]12Oc3c(-c4ccc5c(c4O)C(=O)C4=C(O)C[C@H](C)[C@@H](O)[C@]4(C(=O)OC)O5)ccc(O)c3C(=O)C1=C(O)C[C@H](CO)[C@H]2O > 50 µM

Look up IC50 of COC(=O)c1c(O)c(C)cc(O)c1C(=O)c1c(O)ccc(-c2ccc3c(c2O)C(=O)C2=C(O)C[C@H](C)[C@@H](O)[C@]2(C(=O)OC)O3)c1O and report it. > 50 µM
